TESTED ON: T1, BsComGC (Bacillus subtilis PY79, UniProt P25955 28-98)
T1 sequence: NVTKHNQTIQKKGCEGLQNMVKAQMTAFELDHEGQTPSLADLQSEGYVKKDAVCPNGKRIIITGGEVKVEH
ASSAY: EMSA
TEST READOUT: Kd

| BINDER | MEASURED RESULT |
| --- | --- |
| TTTTTTTTTTTTTTTTTTTTTTCCCACAACAAGCCACCCG (ssDNA) [40 nt ssDNA (EMSA, Fig. S3A)] | ~100 µM |
